- SYSTEM UNDER TEST: T1, CD27 expressed on the cell surface of HT1080_CD27 cells (human, UniProt P26842 20-260)
- T1 construct: whole, on cells; species not restated for the HT1080 transfectant
- T1 sequence (looked up): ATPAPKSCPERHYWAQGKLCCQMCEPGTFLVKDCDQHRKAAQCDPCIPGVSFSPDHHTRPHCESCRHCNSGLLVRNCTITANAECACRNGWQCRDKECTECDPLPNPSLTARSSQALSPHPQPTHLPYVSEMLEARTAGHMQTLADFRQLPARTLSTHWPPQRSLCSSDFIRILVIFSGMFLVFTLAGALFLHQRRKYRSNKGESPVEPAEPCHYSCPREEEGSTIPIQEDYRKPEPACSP
- EXPERIMENT SUMMARY: HT1080_CD27 cells, imaging; further: test concentration or dose not given here
METRIC: Cellular binding assay [RFU] (RFU)
Could you give me the number in RFU? Just the number is fine.

Qu. Using the record for P018.S.10.A.A03 (antibody, V domains shown, V regions on human Ig constant parts; also called AB27_163) VH: QSLEESGGRLVTPGTPLTLTCTVSGIDLSSYAMGWVRQAPGKGLEWIGTISTISNTYYASWANGRFTISKTSTTVDLKMTSLTASDTATYFCARGASNTINDYFNLWGQGTLVTVSS VL: DIVMTQTPASVSEPVGGTVTIKCQASQSVGNYLAWYQQKPGQPPKLLIYDASNLASGVSSRFKGSGFATEFILTISDLESTDAATYYCHSYVYSSGNVYNGFGGGTEVVVK , report its Cellular binding assay [RFU].
Ans. 198

Qu. Field request: Cellular binding assay [RFU] | item: P018.S.02.A.B01 (antibody, V domains shown, V regions on human Ig constant parts; also called AB27_29) VH: QSVEESGGRLVTPGTPLTLTCTVSGMDLSSYSMSWVRQAPGEGLEYIGFIGSSGGTYYASWAKGRFTISRTSTTVDLNITSPTTEDTATYFCARMLAGVYTRLDLWGQGTLVTVSS VL: AQVLTQTPSSVSAAVGGTVTINCQASQSISSSYCSWYQQKPGQPPKLLIYKASTLASGVPSRFKGSGSGTQFTLTISDVQSDDAATYYCAGDFIASSGNAFGGGTEVVVK
Ans. 332

Qu. May I ask what Cellular binding assay [RFU] has been recorded for P018.S.10.A.H05 (antibody, V domains shown, V regions on human Ig constant parts; also called AB27_186) VH: QSLEESGGRLVTPGTPLTLTCTASGFSLSTYYMSWVRQAPGKGLEWIGIIYTSGSTYYASWAKGRFTISRNSTTVDLKITSPTTEDTATYFCARSRVPGDTTGLYYFNLWGPGTLVTVSS VL: ALVMTQTPASVSAAVEGTVTINCQASENIYSNLAWYQQKPGQPPKLLIYHTSNLASGVPSRFKGSGAGTEFTLTISDLESDDAATYYCQSAYDSSSSDTFTFGGGTEVVVK ?
Ans. 313
